# Target Entity: T1, recombinant human IL-4Rα (extracellular domain, tagged) (human, UniProt P24394 26-232)
# T1 construct: it is written second here only for want of that; also called hIL-4Rα; not shown: His-tag or other conventionally used tag
# Method Notes: SPR, Biacore T200; antibody (human IgG4) on the sensor chip, human IL-4Rα at 0.625-12.5 nM
# Description: The binding affinity of the anti-IL-4Rα antibodies (reformatted as human IgG4) to human IL-4Rα was characterized using Biacore T200 (GE). The full-length anti-IL-4Rα antibodies were stabilized on sensor chip CMS. The affinities for human IL-4Rα at various concentrations were measured. […] Using the SPR technology, the association and dissociation rates were measured, and binding affinity was determined.
Outcome Measure: pKd
pKd here is simply -log10 of the concentration when that concentration is written in mol/L.

C27-78-78 (antibody, human IgG4, V domains shown) VH: EVQLLESGGGLVQPGGSLRLSCAASGFTLSSYAMHWVRQAPGKGLEYVSGISPSSASTYYANSVKGRFTISRDNPKNTLFLQMSSLRAEDTAVYYCVRVKSKYRGGMDVWGQGTTVTVSS VL: EIVLTQSPGTLSLSPGERATLSCRASQSISTAYLAWYQQKPGQAPRLLIYGTSRRATGIPDRFSGSGSGTDFTLTISRLEPEDFAVYYCQLYGASSVTFGQGTKLEIK    8.44

Kindly review the next binder as well.
# pKd of C27-56-56 (antibody, human IgG4, V domains shown) VH: EVQLLESGGGLVQPGGSLRLSCAASGFTLSSYAMHWVRQAPGKGLEYVSGISPSSTSTYYANSVKGRFTISRDNPKNTLFLQMSSLRAEDTAVYYCVRVKVLYRGGMDVWGQGTTVTVSS VL: EIVLTQSPGTLSLSPGERATLSCRASQSVSSAYLAWYQQKPGQAPRLLIYGTSRRATGIPDRFSGSGSGTDFTLTISRLEPEDFAVYYCQLYGASSVTFGQGTKLEIK = 8.62
